- System: Toxoplasma gondii
- EXPERIMENT: Antiparasitic activity against Toxoplasma gondii expressing beta-galactosidase infected in HFF assessed as parasite growth inhibition after 72 hrs
- Assay type: functional, organism-based
Consider the following compounds; for each one, report its pEC50.
Reminder that pEC50 is minus the log10 of a molar concentration.

Look up pEC50: `CO[C@@H]1C(=O)O[C@H](C)[C@H](C)/C=C(\C)C[C@H](C)C(=O)N[C@@H](C)C(=O)N(C)[C@H](Cc2c[nH]c3ccccc23)C(=O)N[C@H]1c1ccc(CO)cc1`
6.13

Look up pEC50: `CO[C@@H]1C(=O)O[C@H](C)[C@H](C)/C=C(\C)C[C@H](C)C(=O)N[C@@H](C)C(=O)N(C)[C@H](Cc2c(Cl)[nH]c3ccccc23)C(=O)N[C@H]1c1ccc(O)cc1`
6.66

Look up pEC50: `CO[C@@H]1C(=O)O[C@H](C)[C@H](C)/C=C(\C)C[C@H](C)C(=O)N[C@@H](C)C(=O)N(C)[C@H](Cc2c[nH]c3ccccc23)C(=O)N[C@H]1c1ccc(F)cc1`
6.49

Look up pEC50: C/C1=C\[C@H](C)C[C@H](C)OC(=O)C[C@H](c2ccc(O)cc2)NC(=O)[C@@H](Cc2c(Br)[nH]c3ccccc23)N(C)C(=O)[C@H](C)NC(=O)[C@@H](C)C1 [JASPAMIDE]
6.47

Look up pEC50: `CO[C@@H]1C(=O)O[C@H](C)[C@H](C)/C=C(\C)C[C@H](C)C(=O)N[C@@H](C)C(=O)N(C)[C@H](Cc2c[nH]c3ccccc23)C(=O)N[C@H]1c1ccc([N+](=O)[O-])cc1`
6.21

Look up pEC50: `CO[C@@H]1C(=O)O[C@H](C)[C@H](C)/C=C(\C)C[C@H](C)C(=O)N[C@@H](C)C(=O)N(C)[C@H](Cc2c[nH]c3ccccc23)C(=O)N[C@H]1c1ccc(-c2ccccc2)cc1`
5.87

Look up pEC50: `C/C1=C\[C@@H](C)[C@@H](C)OC(=O)C[C@H](c2ccc(O)cc2)NC(=O)[C@@H](Cc2c[nH]c3ccccc23)N(C)C(=O)[C@H](C)NC(=O)[C@@H](C)C1`
6.32

Look up pEC50: `CO[C@@H]1C(=O)O[C@H](C)[C@H](C)/C=C(\C)C[C@H](C)C(=O)N[C@@H](C)C(=O)N(C)[C@H](Cc2c[nH]c3ccccc23)C(=O)N[C@H]1c1ccc(O)cc1`
6.25

Look up pEC50: `CO[C@@H]1C(=O)O[C@H](C)[C@H](C)/C=C(\C)C[C@H](C)C(=O)N[C@@H](C)C(=O)N(C)[C@H](Cc2c[nH]c3ccccc23)C(=O)N[C@H]1c1ccccc1`
6.29

Look up pEC50: `CO[C@@H]1C(=O)O[C@H](C)[C@H](C)/C=C(\C)C[C@H](C)C(=O)N[C@@H](C)C(=O)N(C)[C@H](Cc2c[nH]c3ccccc23)C(=O)N[C@H]1c1ccc(C#N)cc1`
6.42

Look up pEC50: `COc1ccc([C@@H]2NC(=O)[C@@H](Cc3c[nH]c4ccccc34)N(C)C(=O)[C@H](C)NC(=O)[C@@H](C)C/C(C)=C/[C@@H](C)[C@@H](C)OC(=O)[C@H]2OC)cc1`
6.16
